All values here come from ChEMBL document CHEMBL1140761.

Sequence of the target: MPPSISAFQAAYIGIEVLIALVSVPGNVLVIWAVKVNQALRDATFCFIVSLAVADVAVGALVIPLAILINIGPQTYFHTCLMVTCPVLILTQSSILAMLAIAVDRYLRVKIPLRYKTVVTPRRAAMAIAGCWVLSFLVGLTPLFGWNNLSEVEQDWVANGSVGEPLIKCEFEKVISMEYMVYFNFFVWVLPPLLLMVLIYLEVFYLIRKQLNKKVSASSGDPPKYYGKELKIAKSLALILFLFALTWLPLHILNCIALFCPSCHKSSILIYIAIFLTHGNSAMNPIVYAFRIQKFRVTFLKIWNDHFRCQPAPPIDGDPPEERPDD
Reported Ki values for the following compounds.
Could you give me the number in nM? Just the number is fine.

Look over these answered cases.
query_smiles=C[C@@]1(O)[C@H](O)[C@@H](COC(=S)NCc2ccccc2)O[C@H]1n1cnc2c(NC3CCCC3)ncnc21 quantity_kind=Ki numeric_value=1030
query_smiles=C[C@@]1(O)[C@H](O)[C@@H](COC(=O)NCc2ccccc2)O[C@H]1n1cnc2c(NC3CCCC3)ncnc21 quantity_kind=Ki numeric_value=2050
query_smiles=CNC(=S)OC[C@H]1O[C@@H](n2cnc3c(N[C@@H]4CCOC4)ncnc32)[C@](C)(O)[C@@H]1O quantity_kind=Ki numeric_value=173

Attention now shifts to the item below.
**Q:** For C[C@@]1(O)[C@H](O)[C@@H](COC(=S)NCc2ccccc2)O[C@H]1n1cnc2c(N[C@@H]3CCOC3)ncnc21 , write its Ki.
**A:** 9800
